tgt: T1, murine IL-11 (mouse, UniProt P47873 22-199)
T1 construct: Invigate, e.g. lot #C210819-09; biotinylated where coated in the ELISA; also called mIL-11; mIL11
T1 sequence: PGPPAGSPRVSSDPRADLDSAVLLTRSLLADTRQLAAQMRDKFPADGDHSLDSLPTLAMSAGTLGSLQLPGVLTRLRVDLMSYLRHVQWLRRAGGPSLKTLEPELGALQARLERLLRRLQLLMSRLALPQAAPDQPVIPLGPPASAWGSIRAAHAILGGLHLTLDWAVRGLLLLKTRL
measurement notes: SPR, antibody captured, IL-11 as analyte
For each entry below, report its pKd value.
Answers are plain numbers, as −log10 of the molar value.

Worked cases, answers included:
binder	recorded measurement
TPP-29384 (antibody, human IgG1, V domains shown) VH: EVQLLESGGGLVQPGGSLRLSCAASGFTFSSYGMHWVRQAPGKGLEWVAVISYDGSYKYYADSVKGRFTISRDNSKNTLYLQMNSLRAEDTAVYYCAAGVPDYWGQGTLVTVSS VL: QSVLTQPPSASGTPGQRVTISCSGSSSNIGSGYDVHWYQQLPGTAPKLLIYSNEERPSGVPDRFSGSKSGTSASLAISGLRSEDEADYYCAAWDPSLSGPVFGGGTKLTVL	9.52
TPP-29381 (antibody, human IgG1, V domains shown) VH: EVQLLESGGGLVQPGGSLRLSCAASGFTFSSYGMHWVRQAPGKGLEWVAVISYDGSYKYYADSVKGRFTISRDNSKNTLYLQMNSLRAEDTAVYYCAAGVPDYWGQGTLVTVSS VL: QSVLTQPPSASGTPGQRVTISCSGSSSNIGSDYDVHWYQQLPGTAPKLLIYSNNERPSGVPDRFSGSKSGTSASLAISGLRSEDEADYYCSAWDSSLSGPVFGGGTKLTVL	9.24
TPP-29389 (antibody, human IgG1, V domains shown) VH: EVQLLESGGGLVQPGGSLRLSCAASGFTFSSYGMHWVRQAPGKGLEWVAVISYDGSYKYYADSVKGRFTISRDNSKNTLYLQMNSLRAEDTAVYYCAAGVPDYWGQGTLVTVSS VL: QSVLTQPPSASGTPGQRVTISCSGSSSNIGSYYDVHWYQQLPGTAPKLLIYSNEERPSGVPDRFSGSKSGTSASLAISGLRSEDEADYYCAAWDPSLYGPVFGGGTKLTVL	9.92

For each listed entry, give its pKd.
1. TPP-29396 (antibody, human IgG1, V domains shown) VH: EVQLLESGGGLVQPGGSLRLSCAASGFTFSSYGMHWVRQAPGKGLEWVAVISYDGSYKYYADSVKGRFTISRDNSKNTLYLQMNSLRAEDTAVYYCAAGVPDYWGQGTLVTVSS VL: QSVLTQPPSASGTPGQRVTISCSGSSSNIWSDYDVHWYQQLPGTAPKLLIYSNEERPSGVPDRFSGSKSGTSASLAISGLRSEDEADYYCAAWDFSLYGPVFGGGTKLTVL
2. TPP-29382 (antibody, human IgG1, V domains shown) VH: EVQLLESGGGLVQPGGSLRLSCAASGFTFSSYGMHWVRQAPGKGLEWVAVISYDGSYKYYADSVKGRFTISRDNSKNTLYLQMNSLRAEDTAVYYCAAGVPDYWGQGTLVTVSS VL: QSVLTQPPSASGTPGQRVTISCSGSSSNIGSDLDVHWYQQLPGTAPKLLIYSNNERPSGVPDRFSGSKSGTSASLAISGLRSEDEADYYCAAWDFSLYGPVFGGGTKLTVL
3. TPP-29402 (antibody, human IgG1, V domains shown) VH: EVQLLESGGGLVQPGGSLRLSCAASGFTFSSYGGHWVRQAPGKGLEWVALISYDGSYKYYADSVKGRFTISRDNSKNTLYLQMNSLRAEDTAVYYCAAGVPDYWGQGTLVTVSS VL: QSVLTQPPSASGTPGQRVTISCSGSSSNIGSGLDVHWYQQLPGTAPKLLIYSNEERPSGVPDRFSGSKSGTSASLAISGLRSEDEADYYCAAWDSSLYGPVFGGGTKLTVL
4. TPP-29393 (antibody, human IgG1, V domains shown) VH: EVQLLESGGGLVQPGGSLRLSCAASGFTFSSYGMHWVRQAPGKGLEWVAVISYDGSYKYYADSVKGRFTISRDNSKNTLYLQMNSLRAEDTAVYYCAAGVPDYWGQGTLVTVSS VL: QSVLTQPPSASGTPGQRVTISCSGSSSNIGSDLDVHWYQQLPGTAPKLLIYSNEERPSGVPDRFSGSKSGTSASLAISGLRSEDEADYYCAAWDDSLYGPVFGGGTKLTVL

[9.15, 9.25, 10.35, 9.41]

For each listed entry, give its pKd.
1. TPP-29400 (antibody, human IgG1, V domains shown) VH: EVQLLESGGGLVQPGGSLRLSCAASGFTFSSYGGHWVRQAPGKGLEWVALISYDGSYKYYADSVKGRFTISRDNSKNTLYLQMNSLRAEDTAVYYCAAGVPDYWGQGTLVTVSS VL: QSVLTQPPSASGTPGQRVTISCSGSSSNIGSDYDVHWYQQLPGTAPKLLIYSNNERPSGVPDRFSGSKSGTSASLAISGLRSEDEADYYCAAWDFSLSGPVFGGGTKLTVL
2. TPP-29404 (antibody, human IgG1, V domains shown) VH: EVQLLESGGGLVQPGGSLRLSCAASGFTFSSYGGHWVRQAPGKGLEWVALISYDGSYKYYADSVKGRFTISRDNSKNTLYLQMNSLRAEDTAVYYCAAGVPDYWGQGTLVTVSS VL: QSVLTQPPSASGTPGQRVTISCSGSSSNIGSYYDVHWYQQLPGTAPKLLIYSNNERPSGVPDRFSGSKSGTSASLAISGLRSEDEADYYCAAWDSSLSGPVFGGGTKLTVL

[9.02, 10.04]

Fill blank: measured pKd of the binder TPP-29399 (antibody, human IgG1, V domains shown) VH: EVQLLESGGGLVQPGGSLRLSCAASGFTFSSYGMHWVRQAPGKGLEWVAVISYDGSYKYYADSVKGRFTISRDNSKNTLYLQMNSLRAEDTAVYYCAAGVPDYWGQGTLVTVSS VL: QSVLTQPPSASGTPGQRVTISCSGSSSNIGSDYDVHWYQQLPGTAPKLLIYSNNERPSGVPDRFSGSKSGTSASLAISGLRSEDEADYYCAAWDSSLSGPVFGGGTKLTVL is ____.
9.03
